- Procedure Text: gradient 5% acetonitrile 3 min, to 50% in 2 min, to 85% in 15 min, held 3 min, 100 µL/min
- Study Conditions: column: Zorbax Extend-C18 2.1 x 50 mm; eluents: water / acetonitrile, 0.1% formic acid
Measured Parameter: RP-LC retention time (s)

In the examples that follow, each entry is paired with its recorded RP-LC retention time.
*Q* Write down RP-LC retention time measured for item Cc1cccc(-c2noc(C3CCCN3S(=O)(=O)c3ccc(C)c(C)c3)n2)c1 (centres undefined)
*A* 1210

*Q* Write down RP-LC retention time measured for item Cc1ccc(NC(=O)Cn2c(=O)n(-c3ccc(F)cc3)c(=O)c3c2cc(C)n3C)cc1F
*A* 882

*Q* Write down RP-LC retention time measured for item Cc1ccccc1NC(=O)N(C)CCc1noc(COc2ccccc2)n1
*A* 869

*Q* Write down RP-LC retention time measured for item CC(C)c1ccc2c(c1)-c1ccccc1S(=O)(=O)N2CC(=O)NCc1ccncc1
*A* 699

*Q* Write down RP-LC retention time measured for item Cc1cc(C)cc(NC(=O)N2CCC(n3cnc4ccc(F)cc4c3=O)CC2)c1
*A* 861

A = CC(C)(Oc1ccc(Cl)cc1)C(=O)OCn1nnc2ccccc2c1=O
B = Cc1cccc(Cn2c(C)c(CNCc3ccco3)c(C(=O)O)c2C)c1
*Q* Lower RP-LC retention time: A or B ? Identify your selection by its label.
*A* B

I = O=C(C1=NN(Cc2cc(F)cc(F)c2)c2ccccc2S1(=O)=O)N1CCCCC1
II = CC(=O)N1CC[C@]2(CO)CN(C(=O)c3ccoc3C)C[C@@H]2C1
*Q* Lower RP-LC retention time: I or II ? Identify your selection by its label.
*A* II
(II: 583 s, I: 956 s)
